- Procedure details: Determination of compound Cmax and AUC
- Format: in vivo
- Condition label: rat; Sprague-Dawley rats, oral gavage, serum 0.5-4 h; actual oral dose (mg/kg) given
Could you please report measured Cmax for the items listed next?

Query string: Value lookup for Cmax; key = CN1Cc2c(Cl)cc(Cl)cc2C(c2cccc(S(=O)(=O)NCCOCCOCCOCCNC(=O)NCCCCNC(=O)NCCOCCOCCOCCNS(=O)(=O)c3cccc(C4CN(C)Cc5c(Cl)cc(Cl)cc54)c3)c2)C1 (stereo not shown)
Result string: < 5 ng/mL

Query string: Another compound to check: CN1Cc2c(Cl)cc(Cl)cc2C(c2ccc(S(=O)(=O)NCCOCCOCCNC(=O)CCC(=O)NCCOCCOCCNS(=O)(=O)c3ccc(C4CN(C)Cc5c(Cl)cc(Cl)cc54)cc3)cc2)C1 (stereo not shown)
Result string: < 3.2 ng/mL

Query string: Another compound to check: CN1Cc2c(Cl)cc(Cl)cc2C(c2ccc(S(=O)(=O)NCCOCCOCCNC(=O)c3ccc(C(=O)NCCOCCOCCNS(=O)(=O)c4ccc(C5CN(C)Cc6c(Cl)cc(Cl)cc65)cc4)cc3)cc2)C1 (stereo not shown)
Result string: < 2.5 ng/mL

Query string: Another compound to check: CN1Cc2c(Cl)cc(Cl)cc2C(c2cccc(S(=O)(=O)NCCOCCOCCNC(=O)c3ccc(C(=O)NCCOCCOCCNS(=O)(=O)c4cccc(C5CN(C)Cc6c(Cl)cc(Cl)cc65)c4)cc3)c2)C1 (stereo not shown)
Result string: < 2 ng/mL
